Data origin: a melting point compilation (Tetko et al.; mined from patent text by program, amines drawn as free bases though some values may be those of a salt)

Reported melting point by item:
parameter: melting point

O=C1NC(=O)C(Cc2ccc(OCc3nc4cccnc4n3Cc3ccc(Cl)cc3)cc2)S1 (centres undefined)
211 to 213 °C
O=C(O)c1ccc(C(=O)NOCCC23CC4CC(CC(C4)C2)C3)cc1
197 to 200 °C
CS(=O)(=O)c1ncc(OCc2ccccc2)cn1
100 to 102 °C
COc1c(Cl)ccnc1CO
64 to 66 °C
CC(=O)OCC1OC(n2cc(Cc3ccc(Br)cc3)c3c(Cl)cccc32)C(OC(C)=O)C(OC(C)=O)C1OC(C)=O (centres undefined)
223 to 225 °C
Cc1c(C(=O)Nc2ccc(N3CCC(N4CCOCC4)CC3)c(C#N)c2)cnn1-c1cccc(C(F)(F)F)c1
215 to 216 °C
COc1ccn2nc(S(=O)(=O)Cl)nc2n1
110 to 112 °C
CCCc1c[nH]nc1OCCCc1cn(-c2ccc(C(F)(F)F)cn2)nc1OCC
121 to 122 °C
Cc1oc(-c2ccco2)nc1/C=C/c1ccc(C=O)cc1
209 to 210 °C
CCCCCCCCCCCCCCCCCCCC(=O)OCC(O)COC(=O)CCCCCCCCCCCCCCCCCCC
83 to 84 °C
OC1CCN(Cc2cccc(F)c2)CC1
61 to 62 °C
O=c1oc(-c2ccccc2)cc(O)c1C(Sc1ccccc1)c1ccc2ccccc2c1 (centres undefined)
98 to 101 °C
Clc1ccc(N=C2NCCN2)c(Cl)c1Cl
161 °C
CCCn1c(=O)c2[nH]c(-c3ccc(C(=O)N(CC)CC)o3)nc2n(CCC)c1=O
247 to 250 °C

###

Reported melting point values follow for various compounds
parameter: melting point

Cc1nc(N=Nc2ccccc2)c(O)c(=O)[nH]1
243 to 245 °C
CC(=NNCCCC(C)C)C(=O)O
118 to 125 °C
CCOc1cc(-c2cc(C(F)(F)F)n3ncc(-c4cc(C)nc(C)c4)c3n2)ccc1C(F)(F)F
257 °C
CCOC(=O)c1csc(/C=C/C(=O)c2ccc3c(c2)C2(C)C4(C)CCC(C4)C2(C)O3)c1 (centres undefined)
149 to 151 °C
CCC(=O)OC1(C(=O)CCl)C(C)CC2C3CCC4CC(=O)CCC4(C)C3=CCC21C (centres undefined)
140 to 142 °C
O=C(Cc1cccc(C(=O)O)c1)Nc1cccc(/C=C/c2nc(C3CCC3)cs2)c1
208 to 209 °C
CCCCCCCNC(=O)N(C)c1cccc(-c2ccc(CC3SC(=O)NC3=O)cc2)c1 (centres undefined)
55 °C
NS(=O)(=O)c1ccc(-c2cnn(Cc3cc(F)c(F)cc3F)c(=O)c2-c2ccc(F)cc2)cc1
236 to 238 °C
Cc1cc(-c2ccc(C(F)(F)F)cc2)cc(-c2ccnc(-c3cccc(NS(C)(=O)=O)c3)c2)n1
196 °C

###

parameter: melting point

C=CCC1(CCNC(=O)C2CCC2)c2cc(OC)ccc2CCC12OCCO2 (stereo not drawn)
99 to 101 °C
Nc1ccc(Sc2cccc3cnccc23)cc1NCc1ccccc1
125 to 127 °C
CC(C)(CO)NC(=O)c1nn(C2CCCCO2)cc1NC(=O)c1ccccn1 (stereo not drawn)
194 to 195 °C

###

List of melting point values.
parameter: melting point

C[C@@](O)(CO)COc1ccc(Br)cc1
90 °C
COc1ccc2c(c1)C(=O)c1c-2n(CCCCl)c(=O)c2ccccc12
195 to 198 °C
CC(=O)NC[C@H]1CN(c2ccc(N3CCC(=C(C)C#N)CC3)cc2)C(=O)O1
94 to 96 °C
COC(=O)Cc1ccc(C(=O)O)cc1
134 to 136 °C
COc1ccc2c(c1)sc1nc(C(=O)C3CC3)cn12
213 °C
CN(C(=O)CN(O)C(N)=O)c1cccc(OCc2ccccc2)c1
162 to 163 °C
CCOC(=O)C1=C(COCCNc2nc(C(C)=O)c[nH]2)NC(C)=C(C(=O)OC)C1c1cccc(Cl)c1Cl (centres undefined)
177 °C
Cn1cc(-c2ccc3nc(NC(=O)c4ccc(C(C)(C)C)cc4)cn3n2)cn1
245 to 246 °C
CCOC(=O)c1c(CCc2ccc(C(F)(F)F)cc2)nc2c(c1-c1ccc(C(=O)N[C@@H](C)c3ccncc3)cc1)C(=O)N1CCC[C@@H]21
158 to 160 °C
